Where do the numbers come from? From patent US9259401B2.

assay: Comparative bioavailability study, curcumin in plasma by HPLC; assay type: in vivo, human; conditions: human, plasma, po, 1 gm, time 8 hr; 1 gm curcuminoids oral; read-out: Median plasma concentration
assayReadout: concentration at 8 hr (ng/mL)
Note: unit ng/mL is implicit; provide only the numeric part.

Given the entry `COc1cc(C=CC(=O)CC(=O)C=Cc2ccc(O)c(OC)c2)ccc1O` , report its measured concentration at 8 hr.
18.6

====

assay: Comparative bioavailability study, curcumin in plasma by HPLC; assay type: in vivo, human; details: human, plasma, po, 1 gm, time 0.00 hr (prior to dosing); individual subjects; single oral dose equivalent to 1 gm curcuminoids; read-out: Individual plasma concentration
assayReadout: concentration at 0 hr (ng/mL)
Note: unit ng/mL is implicit; provide only the numeric part.

Given the entry `COc1cc(C=CC(=O)CC(=O)C=Cc2ccc(O)c(OC)c2)ccc1O` , report its measured concentration at 0 hr.
0

====

experiment: Comparative bioavailability study, curcumin in plasma by HPLC; format: in vivo, human; settings: human, plasma, po, 1 gm, time 1 hr; 1 gm curcuminoids oral; read-out: Max plasma concentration
assayReadout: concentration at 1 hr (ng/mL)
Note: unit ng/mL is implicit; provide only the numeric part.

Given the entry `COc1cc(C=CC(=O)CC(=O)C=Cc2ccc(O)c(OC)c2)ccc1O` , report its measured concentration at 1 hr.
20.6

====

assay: Comparative bioavailability study, curcumin in plasma by HPLC; assay type: in vivo, human; conditions: human, plasma, po, 1 gm, time 24 hr; 1 gm curcuminoids oral; read-out: Max plasma concentration
assayReadout: concentration at 24 hr (µg/mL)
Note: unit µg/mL is implicit; provide only the numeric part.

Given the entry `COc1cc(C=CC(=O)CC(=O)C=Cc2ccc(O)c(OC)c2)ccc1O` , report its measured concentration at 24 hr.
0.0115

====

experiment: Comparative bioavailability study, curcumin in plasma by HPLC; assay type: in vivo, human; settings: human, plasma, po, 1 gm, 1 gm curcuminoids oral; read-out: Tmax, Median
assayReadout: Tmax (h)
Note: unit h is implicit; provide only the numeric part.

Given the entry `COc1cc(C=CC(=O)CC(=O)C=Cc2ccc(O)c(OC)c2)ccc1O` , report its measured Tmax.
3

====

test: Comparative bioavailability study, curcumin in plasma by HPLC; type: in vivo, human; details: human, plasma, po, 1 gm, time 0 hr; 1 gm curcuminoids oral; read-out: Max plasma concentration
assayReadout: concentration at 0 hr (ng/mL)
Note: unit ng/mL is implicit; provide only the numeric part.

Given the entry COc1cc(C=CC(=O)CC(=O)C=Cc2ccc(O)c(OC)c2)ccc1O [Curcumin] , report its measured concentration at 0 hr.
0

====

test: Comparative bioavailability study, curcumin in plasma by HPLC; format: in vivo, human; settings: human, plasma, po, 1 gm, time 2 hr; 1 gm curcuminoids oral; read-out: Mean plasma concentration
assayReadout: concentration at 2 hr
# include the unit after the value

Given the entry `COc1cc(C=CC(=O)CC(=O)C=Cc2ccc(O)c(OC)c2)ccc1O` , report its measured concentration at 2 hr.
14.4 ng/mL

====

experiment: Comparative bioavailability study, curcumin in plasma by HPLC; type: in vivo, human; details: human, plasma, po, 1 gm, time 4 hr; 1 gm curcuminoids oral; read-out: Mean plasma concentration
assayReadout: concentration at 4 hr (ng/mL)
Note: unit ng/mL is implicit; provide only the numeric part.

Given the entry `COc1cc(C=CC(=O)CC(=O)C=Cc2ccc(O)c(OC)c2)ccc1O` , report its measured concentration at 4 hr.
7.07
